ASSAY: qHTS assay to identify small molecule agonists of the constitutive androstane receptor (CAR) signaling pathway - cell viability counter screen (AID 1224836); also: nearly all actives have a fitted effect of over 45% in size
CONDITION INFO: HepG2-CYP2B6-hCAR viability, CellTiter-Fluor, 23 h, PK11195 added to every well; series mostly up to 92.4 µM
Inconclusive results are not listed. Activity calls are given as the source filed them. Calls follow the shape of the dose curve; as a rule, active = well fitted cell-killing curve with a large enough effect in the repeat runs; inconclusive = weak or mixed curves, or effect the other way; inactive = flat fitted curve, though single readings scatter.
Possible outcomes: YES = active, NO = inactive

{"columns": ["COMPOUND", "CLASSIFICATION"],
 "data": [
  ["Cc1ccc2ccccc2c1", "NO"],
  ["CCCC(=O)Cl", "NO"],
  ["COc1nn(CSP(=S)(OC)OC)c(=O)s1", "NO"],
  ["C=CCOC(C)=O", "NO"],
  ["O=C(O)c1ccccc1C(=O)Nc1cccc2ccccc12", "NO"],
  ["NCCCNCCCN", "NO"],
  ["O=C(O)COc1ccc(Cl)cc1", "NO"],
  ["IC(I)=C(I)I", "YES"],
  ["CC(C)(OO)c1ccccc1", "NO"]
]}
